Source of measurements: ChEMBL document CHEMBL1629440

Reported pKi values, D(4) dopamine receptor (Homo sapiens, UniProt P21917).
pKi: −log10 of the molar value.

MOL_SMILES: COC(=O)CCCCCN1CCC(CNC(=O)c2c3n(c4ccccc24)CCCO3)CC1
MEASUREMENT_TARGET: D(4) dopamine receptor (Homo sapiens, UniProt P21917)
Sequence (P21917 whole entry): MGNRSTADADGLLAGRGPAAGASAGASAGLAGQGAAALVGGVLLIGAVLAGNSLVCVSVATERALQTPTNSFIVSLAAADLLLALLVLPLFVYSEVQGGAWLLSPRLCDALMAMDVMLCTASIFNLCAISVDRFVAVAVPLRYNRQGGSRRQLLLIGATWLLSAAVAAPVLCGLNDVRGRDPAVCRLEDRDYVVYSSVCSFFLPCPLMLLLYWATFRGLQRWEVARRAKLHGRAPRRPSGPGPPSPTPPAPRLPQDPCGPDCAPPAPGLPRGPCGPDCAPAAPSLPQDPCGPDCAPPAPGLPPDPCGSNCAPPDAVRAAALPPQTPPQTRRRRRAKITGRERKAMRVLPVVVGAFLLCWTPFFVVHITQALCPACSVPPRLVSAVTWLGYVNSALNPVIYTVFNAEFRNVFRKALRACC
pKi: < 5.00
//
MOL_SMILES: O=C(O)CCCCCN1CCC(CNC(=O)c2c3n(c4ccccc24)CCCO3)CC1
MEASUREMENT_TARGET: D(4) dopamine receptor (Homo sapiens, UniProt P21917)
pKi: < 5.00

---

MEASUREMENT_TARGET: UniProt P08588
Sequence (P08588 whole entry): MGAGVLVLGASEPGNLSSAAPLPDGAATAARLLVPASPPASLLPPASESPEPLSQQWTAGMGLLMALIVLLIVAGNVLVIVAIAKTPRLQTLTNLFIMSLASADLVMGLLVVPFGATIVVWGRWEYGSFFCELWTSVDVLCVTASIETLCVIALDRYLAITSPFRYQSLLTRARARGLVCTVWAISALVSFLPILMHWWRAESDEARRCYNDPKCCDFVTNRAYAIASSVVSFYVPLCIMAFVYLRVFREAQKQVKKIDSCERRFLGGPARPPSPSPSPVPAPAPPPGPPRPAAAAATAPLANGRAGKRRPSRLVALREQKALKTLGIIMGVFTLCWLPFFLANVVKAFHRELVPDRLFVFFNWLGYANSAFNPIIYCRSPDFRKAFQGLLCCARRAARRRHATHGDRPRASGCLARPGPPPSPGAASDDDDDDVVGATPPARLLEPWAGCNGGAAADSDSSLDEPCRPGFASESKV
EXPERIMENT_SUMMARY: Binding affinity to beta1 adrenergic receptor

MOL_SMILES: COC(=O)CCCCCN1CCC(CNC(=O)c2c3n(c4ccccc24)CCCO3)CC1
Ki: > 10 µM
--
MOL_SMILES: O=C(O)CCCCCN1CCC(CNC(=O)c2c3n(c4ccccc24)CCCO3)CC1
Ki: > 10 µM
